- Target Or System: Methionine--tRNA ligase, mitochondrial (Homo sapiens) (UniProt Q96GW9)
- Sequence (Q96GW9 whole entry, looked up): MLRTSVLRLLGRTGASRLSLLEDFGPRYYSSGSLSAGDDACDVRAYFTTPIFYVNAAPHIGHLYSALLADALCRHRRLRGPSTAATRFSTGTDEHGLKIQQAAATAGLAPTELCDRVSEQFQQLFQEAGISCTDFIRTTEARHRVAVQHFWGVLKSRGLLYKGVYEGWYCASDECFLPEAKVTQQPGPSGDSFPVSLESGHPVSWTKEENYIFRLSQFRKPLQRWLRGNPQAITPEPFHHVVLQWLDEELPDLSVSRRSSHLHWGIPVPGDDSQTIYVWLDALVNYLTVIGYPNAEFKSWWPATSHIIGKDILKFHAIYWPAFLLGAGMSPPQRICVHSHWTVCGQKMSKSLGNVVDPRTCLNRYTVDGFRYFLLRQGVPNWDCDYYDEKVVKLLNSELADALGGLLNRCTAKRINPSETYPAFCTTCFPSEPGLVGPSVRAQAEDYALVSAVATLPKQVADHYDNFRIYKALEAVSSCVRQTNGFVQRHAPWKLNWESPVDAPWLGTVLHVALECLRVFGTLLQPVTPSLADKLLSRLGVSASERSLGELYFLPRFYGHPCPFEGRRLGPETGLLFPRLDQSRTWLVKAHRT
- Experimental Details: human mitochondrial MetRS inhibitors, late-stage follow-up, counter-screen for T. brucei MetRS inhibitor project, biochemical, radioactivity, [3H]methionine, two concentrations (AID 720620)
- Study Conditions: recombinant human mitochondrial MetRS, [3H]Met-tRNA charging, 60 min; at 10 µM; stronger effect = higher value
Readout Label: inhibition (%)

// below: answered molecules
>  <Molecule>
O=C(CCC(=O)Nc1cccc([N+](=O)[O-])c1)NN=Cc1cccs1

>  <Test Value>
-14.1

$$$$
>  <Molecule>
O=C(NCCc1nc2ccccc2[nH]1)c1ccc(Cl)c([N+](=O)[O-])c1

>  <Test Value>
25.5

$$$$
>  <Molecule>
CN(CC(=O)Nc1ccc(Cl)cc1)C(=O)c1ccc(-n2cncn2)c([N+](=O)[O-])c1

>  <Test Value>
-19.1

$$$$
>  <Molecule>
COc1ccccc1-n1c(SCC(=O)Nc2ccc(Cl)cc2)nc(O)c(Cc2ccccc2)c1=O

>  <Test Value>
-19.7

$$$$
>  <Molecule>
O=C(NCc1nc2ccccc2[nH]1)C1=C[C@@H](c2ccc3c(c2)OCO3)C[C@@H](OCCCCO)O1

>  <Test Value>
-0.58

$$$$

(P) COc1ccc2[nH]c3nc(SCC(=O)Nc4ccc5c(c4)OCO5)nnc3c2c1
(Q) Brc1cnc2nc(SCc3nc4ccccc4[nH]3)[nH]c2c1
Among P and Q , which shows a numerically higher inhibition result? Please reply using the label of the selected record. P

(a) C[C@H](O)[C@@H]1C(=O)N2CCc3c([nH]c4ccccc34)[C@@H]2C[C@@H]1N(C)Cc1ccc2c(c1)OCO2
(b) O=C1CC(SCc2nc3ccccc3[nH]2)C(=O)N1c1cccc(Cl)c1 (stereo not drawn)
(c) O=C(Nc1ccc(F)c(Cl)c1)C1CC(=O)n2c(nc3ccccc32)N1 (stereo not drawn)
(d) O=C(Cn1cc(C(=O)C(=O)N2CCOCC2)c2ccccc21)Nc1cccc(C(F)(F)F)c1
(e) CCCCCCCCCC1NC(C(=O)O)Cc2c1[nH]c1ccccc21 (stereo not drawn)
I would appreciate it if you could sort these 5 molecules by inhibition, starting from the smallest number. Answer by listing the labels in the requested order. d, b, c, e, a
